Provenance of the data: ChEMBL document CHEMBL5036373

- TEST_DETAILS: Half life in rat plasma at 40 mg/kg, po
- Assay type: ADME, organism-based

# TEST_SMILES, half-life, h
data = [
    ("O=C(c1cc2cc(Br)ccc2o1)N1CCc2c([nH]c3ccccc23)[C@H]1c1ccc(Cl)cc1", 8),
]
